# System: Bst 2.0 DNA polymerase
# method-summary: Homopolymer assays of nucleotide analogs (Example 10)
# Type: biochemical
# test-parameters: Natural Nucleotide C (dCTP = 1); template oligo 333, primer 221L
Would you kindly list Relative Rate in Homopolymer Assay for each of these compounds?

// below: answered compounds
{"columns": ["compound", "reported-endpoint", "result"],
 "data": [
  ["Nc1nc(=O)n([C@H]2C[C@H](O)[C@@H](COP(=O)(O)OP(=O)(O)OP(=O)(O)O)O2)cc1C=O [5-formyl-dCTP, 5-formyl-2′-deoxycytidine 5′triphosphate]", "Relative Rate in Homopolymer Assay", "<<1"],
  ["Nc1nc(=O)n([C@H]2C[C@H](O)[C@@H](COP(=O)(O)OP(=O)(O)OP(=O)(O)O)O2)cc1Br [5-Bromo-dCTP, 5-bromo-2′-deoxycytidine 5′triphosphate]", "Relative Rate in Homopolymer Assay", ">1"],
  ["Nc1nc(=O)n([C@H]2C[C@H](O)[C@@H](COP(=O)(O)OP(=O)(O)OP(=O)(O)O)O2)cc1O [5-Hydroxy-dCTP]", "Relative Rate in Homopolymer Assay", "<<1"],
  ["Nc1nc(=O)n([C@H]2C[C@H](O)[C@@H](COP(=O)(O)OP(=O)(O)OP(=O)(O)O)O2)cc1CO [5-Hydroxymethyl-dCTP]", "Relative Rate in Homopolymer Assay", "<<1"],
  ["C#Cc1cn([C@H]2C[C@H](O)[C@@H](COP(=O)(O)OP(=O)(O)OP(=O)(O)O)O2)c(=O)nc1N", "Relative Rate in Homopolymer Assay", ">1"],
  ["Cc1cn([C@H]2C[C@H](O)[C@@H](COP(=O)(O)OP(=O)(O)OP(=O)(O)O)O2)c(=O)nc1N [5-Methyl-dCTP, 5-methyl-2′-deoxycytidine 5′triphosphate]", "Relative Rate in Homopolymer Assay", ">1"]
]}

Next:
Given item Nc1ccn([C@H]2C[C@H](O)[C@@H](COP(=O)(O)OP(=O)(O)OP(=O)(O)O)O2)c(=O)n1 [dCTP, deoxycytidine triphosphate] , the value recorded as its Relative Rate in Homopolymer Assay is 1
